- System: SpTbr T-box DNA-binding domain (GST fusion);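 further: protein at 200 nM in PBS on universal double-stranded arrays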
- Sequence: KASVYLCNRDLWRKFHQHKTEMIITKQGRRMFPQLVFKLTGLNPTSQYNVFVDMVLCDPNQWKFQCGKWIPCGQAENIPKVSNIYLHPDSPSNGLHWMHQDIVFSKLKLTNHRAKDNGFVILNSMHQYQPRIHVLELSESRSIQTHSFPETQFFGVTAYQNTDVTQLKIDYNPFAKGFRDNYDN
- Test description: PBM E-score of 8-mer (E-score (dimensionless, -0.5 to 0.5)); higher = stronger binding preference
- Measurement context: the construct has about 5 more residues each side
Over roughly 33,000 sequences, “E-score (dimensionless, -0.5 to 0.5)” has its median near -0.046; the highest 2% begin near 0.36. The sample as a whole holds a higher share of the highest values than the screen did.
Assay endpoint: PBM E-score of 8-mer
In your answer, state the number alone without any accompanying words.

Worked examples, 2 sequences total:
- Sequence text: "ACCTAGAA"
  Assay endpoint: "PBM E-score of 8-mer"
  Measured result: -0.0152
- Sequence text: "TCAAGGAA"
  Assay endpoint: "PBM E-score of 8-mer"
  Measured result: -0.0393

Lookup: What does the record list as PBM E-score of 8-mer for GGCAGGGA ?
Found: -0.182

Lookup: // query PBM E-score of 8-mer value for entry CGCCACAA
Found: 0.0762

Lookup: // PBM E-score of 8-mer lookup, key: CGGGTGAA
Found: -0.349

Lookup: Need PBM E-score of 8-mer of ACTCTTCG , thanks.
Found: 0.113

Lookup: Fill in the blank: the reported PBM E-score of 8-mer of ACACCCCC is ____.
Found: 0.363

* * *

- System: SpTbr T-box DNA-binding domain (GST fusion);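 further: protein at 200 nM in PBS on universal double-stranded arrays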
- Sequence: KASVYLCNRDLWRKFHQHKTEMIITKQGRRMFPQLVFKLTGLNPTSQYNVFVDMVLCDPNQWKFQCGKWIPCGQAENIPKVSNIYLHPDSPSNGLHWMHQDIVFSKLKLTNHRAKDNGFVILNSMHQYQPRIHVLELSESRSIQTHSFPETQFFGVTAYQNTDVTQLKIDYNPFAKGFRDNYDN
- Test description: PBM E-score of 8-mer (E-score (dimensionless, -0.5 to 0.5)); higher = stronger binding preference
- Measurement context: target sequence: T-box / the construct has about 5 more residues each side
The full ranking holds about 33,000 sequences; the median of “E-score (dimensionless, -0.5 to 0.5)” is about -0.046, and the highest 2% start at about 0.36. This excerpt belongs to a sample that is enriched for the highest values.
Where PBM E-score of 8-mer equals or exceeds -0.05, the correct label is True; where it does not, the label is False.

Example results:
- Sequence text: "GCTGATCA"
  Assigned category: "True"
- Sequence text: "AGGCGCTA"
  Assigned category: "True"

Lookup: Please tell me: is the sequence CATGGGCC at or over -0.05 in terms of PBM E-score of 8-mer?
Found: False

Lookup: Item AATGTGTG with PBM E-score of 8-mer of -0.05 or above?
Found: True

Lookup: Would you say ACTGTCTG shows PBM E-score of 8-mer at minimum -0.05?
Found: True

Lookup: Reported PBM E-score of 8-mer reaches at least -0.05 for CTCGTTAC ?
Found: False

Lookup: Check the entry AGGCGCGA : does PBM E-score of 8-mer equal or exceed -0.05?
Found: True

Lookup: Has GCTACCTA a recorded PBM E-score of 8-mer greater than or equal to -0.05?
Found: False

Lookup: Does GAGTGACA have a reported PBM E-score of 8-mer of at least -0.05?
Found: True

* * *

- System: SpTbr T-box DNA-binding domain (GST fusion);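 further: protein at 200 nM in PBS on universal double-stranded arrays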
- Sequence: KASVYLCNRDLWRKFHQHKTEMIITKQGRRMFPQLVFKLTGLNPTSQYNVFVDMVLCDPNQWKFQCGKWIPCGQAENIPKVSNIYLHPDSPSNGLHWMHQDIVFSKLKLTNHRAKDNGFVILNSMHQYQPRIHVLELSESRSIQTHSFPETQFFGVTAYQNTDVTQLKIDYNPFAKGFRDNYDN
- Test description: PBM E-score of 8-mer (E-score (dimensionless, -0.5 to 0.5)); higher = stronger binding preference
- Measurement context: target sequence: T-box / the construct has about 5 more residues each side
In all, about 33,000 sequences were measured (“E-score (dimensionless, -0.5 to 0.5)”: median about -0.046, highest 2% from about 0.36 on). The full list was thinned out, with the highest values kept by preference.
Reported PBM E-score of 8-mer values follow for various sequences
Output spec: single numeric token, no unit.

- Sequence text: "GCCTGCAC"
  Assay system: "SpTbr T-box DNA-binding domain (GST fusion)"
  PBM E-score of 8-mer: -0.0663
- Sequence text: "CAAGGTGC"
  Assay system: "SpTbr T-box DNA-binding domain (GST fusion)"
  PBM E-score of 8-mer: 0.421
- Sequence text: "GCAACACA"
  Assay system: "SpTbr T-box DNA-binding domain (GST fusion)"
  PBM E-score of 8-mer: 0.267
- Sequence text: "CACTCTCA"
  Assay system: "SpTbr T-box DNA-binding domain (GST fusion)"
  PBM E-score of 8-mer: 0.317
- Sequence text: "CCGACCTC"
  Assay system: "SpTbr T-box DNA-binding domain (GST fusion)"
  PBM E-score of 8-mer: -0.148

Lookup: Entry under review: CATCGCAC . Reported PBM E-score of 8-mer?
Found: 0.376

Lookup: Please look up its PBM E-score of 8-mer: CACCTCTA
Found: 0.416

Lookup: Could you share which PBM E-score of 8-mer value was measured for AGTGACAT ?
Found: 0.277

* * *

- System: SpTbr T-box DNA-binding domain (GST fusion);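 further: protein at 200 nM in PBS on universal double-stranded arrays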
- Sequence: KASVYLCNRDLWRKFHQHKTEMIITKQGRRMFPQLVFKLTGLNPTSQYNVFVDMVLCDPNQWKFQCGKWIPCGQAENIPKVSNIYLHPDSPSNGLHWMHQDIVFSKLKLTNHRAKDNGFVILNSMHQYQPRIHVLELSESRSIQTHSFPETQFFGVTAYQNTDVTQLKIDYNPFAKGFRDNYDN
- Test description: PBM E-score of 8-mer (E-score (dimensionless, -0.5 to 0.5)); higher = stronger binding preference
- Measurement context: target sequence: T-box / the construct has about 5 more residues each side
Over roughly 33,000 sequences, “E-score (dimensionless, -0.5 to 0.5)” has its median near -0.046; the highest 2% begin near 0.36. The sample as a whole holds a higher share of the highest values than the screen did.
The following ranges of PBM E-score of 8-mer define the classes used here: 0 = under 0.09, 1 = from 0.09 up to 0.3, 2 = 0.3 and over

- Sequence text: "CACCTGTC"
  Assigned category: 2
- Sequence text: "CTCACCGC"
  Assigned category: 0
- Sequence text: "AACCTATG"
  Assigned category: 0

Lab note: next sequence to report on.
Lookup: Input CACAGCGC ; output its category
Found: 1

* * *

Each entry below carries its reported PBM E-score of 8-mer.
- Tested on: SpTbr T-box DNA-binding domain (GST fusion);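 further: protein at 200 nM in PBS on universal double-stranded arrays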
- Sequence: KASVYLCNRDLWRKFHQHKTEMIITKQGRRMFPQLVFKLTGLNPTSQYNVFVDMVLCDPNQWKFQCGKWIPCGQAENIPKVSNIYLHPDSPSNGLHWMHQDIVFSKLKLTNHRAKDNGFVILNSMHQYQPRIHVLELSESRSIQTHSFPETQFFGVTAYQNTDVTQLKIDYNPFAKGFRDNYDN
- Test description: PBM E-score of 8-mer (E-score (dimensionless, -0.5 to 0.5)); Tbr is Tbrain of the sea star Patiria miniata (Pm) or the sea urchin Strongylocentrotus purpuratus (Sp); higher = stronger binding preference
- Measurement context: target sequence: T-box / the construct has about 5 more residues each side
Over roughly 33,000 sequences, “E-score (dimensionless, -0.5 to 0.5)” has its median near -0.046; the highest 2% begin near 0.36. This is one part of a sample in which the highest values are shown more often than they occur.
Respond using a number only.

Guide cases for PBM E-score of 8-mer, answers given:
- Sequence text: "AAGGTGCT"
  Assay system: "SpTbr T-box DNA-binding domain (GST fusion)"
  PBM E-score of 8-mer: 0.435
- Sequence text: "ACCGTGTG"
  Assay system: "SpTbr T-box DNA-binding domain (GST fusion)"
  PBM E-score of 8-mer: 0.203
- Sequence text: "ATAACACG"
  Assay system: "SpTbr T-box DNA-binding domain (GST fusion)"
  PBM E-score of 8-mer: 0.303
- Sequence text: "GCAAGAGC"
  Assay system: "SpTbr T-box DNA-binding domain (GST fusion)"
  PBM E-score of 8-mer: -0.0244
- Sequence text: "CACGCCTA"
  Assay system: "SpTbr T-box DNA-binding domain (GST fusion)"
  PBM E-score of 8-mer: 0.375

Lookup: I would be grateful if you could share the reported PBM E-score of 8-mer for GACAACAC .
Found: 0.385

Lookup: Need PBM E-score of 8-mer of AACCTAAG , thanks.
Found: -0.133

Lookup: Give the measured PBM E-score of 8-mer of CGAACACC .
Found: 0.321

Hey, just so you know, these numbers are from the supplement of paper PMC4166925.
